All values here come from paper PMC7753147.

tested on: gephE; test: µSPOT peptide microarray binding assay with recombinant gephE; settings: µSPOT full positional scan of GlyRβ 15-mer DLRSNDFSIVGSLPR; intensity normalised to wild-type sequence (= 1)
Outcome Measure: gephE Binding Intensity [norm.] (norm.)
// units = norm.; emit number, no label

Reference set, count: 5
DLRSNDFSIVGSLKR [GlyRβ_Full_Positional_Scan_274]; 0.58
DLRSNDFSIVGSLIR [GlyRβ_Full_Positional_Scan_263]; 0.65
DLRSNDFSIVMSLPR [GlyRβ_Full_Positional_Scan_218, GlyR β 414-428 variant G424M]; 0.36
DLRSNDFSIVGSFPR [GlyRβ_Full_Positional_Scan_247]; 0.9
DLRSNDFSIVGSLSR [GlyRβ_Full_Positional_Scan_275]; 0.72

In the following, a different sequence is considered.
Q: Recorded gephE Binding Intensity [norm.] for DLRSNDFSIVGFLPR [GlyRβ_Full_Positional_Scan_227] , please?
A: 0.64

---

Here the recorded Native geph Binding Intensity [norm.] is given for each entry.
test system: native geph; assay: µSPOT peptide microarray binding assay with native geph from mouse brain lysate; details: overlapping GlyR β peptide library on µSPOT array; 3% mouse brain lysate; normalized to most prominent spot; n = 2 array-internal duplicate

Reference set, count: 4
VGETRCKKVCTSKSDLRSND [Glycine receptor subunit beta_018, GlyR β residues 400-419]; 0.074 norm.
ADGKGGNAAKKNTVNGTGTP [Glycine receptor subunit beta_009]; 0.067 norm.
KKVCTSKSDLRSNDFSIVGS [Glycine receptor subunit beta_020, GlyR β residues 406-425]; 0.309 norm.
LRSNDFSIVGSLPRDFELSN [Glycine receptor subunit beta_023, GlyR β residues 415-434]; 1.000 norm.

Q: Query the reported Native geph Binding Intensity [norm.] for native geph; item: KKNTVNGTGTPVHISTLQVG [Glycine receptor subunit beta_012]
A: 0.085 norm.

Q: Query the reported Native geph Binding Intensity [norm.] for native geph; item: PQAKNKKPPPAKPVIPTAAK [Glycine receptor subunit beta_035, GlyR β residues 451-470]
A: 0.087 norm.

Q: Query the reported Native geph Binding Intensity [norm.] for native geph; item: KGGNAAKKNTVNGTGTPVHI [Glycine receptor subunit beta_010]
A: 0.077 norm.

Q: Query the reported Native geph Binding Intensity [norm.] for native geph; item: GSLPRDFELSNYDCYGKPIE [Glycine receptor subunit beta_026, GlyR β residues 424-443]
A: 0.134 norm.

---

Here the recorded gephE Binding Intensity [norm.] is given for each entry.
tested on: gephE; assay: µSPOT peptide microarray binding assay with recombinant gephE; conditions: overlapping GABAAR α3 peptide library on µSPOT array; 20 nM gephE; normalized to most prominent spot; n = 2 array-internal duplicate
Kindly format the answer as number then unit.

Reference set, count: 8
TTFNIVGTTYPINLAKDTEF [GABAAR α3 residues 393-412, µSpot library]; 0.457 norm.
TKRSWAWEGKKVPEALEMKK; 0.049 norm.
TAIASPKATYVQDSPAETKT [GABAAR α3 residues 429-448, µSpot library]; 0.018 norm.
KKVPEALEMKKKTPAAPTKK [GABAAR α3 residues 372-391, µSpot library]; 0.038 norm.
KATYVQDSPAETKTYNSVSK [GABAAR α3 residues 435-454, µSpot library]; 0.070 norm.
KKKTPAAPTKKNTTFNIVGT [GABAAR α3 residues 381-400, µSpot library]; 0.053 norm.
NIVGTTYPINLAKDTEFSTI [GABAAR α3 residues 396-415, µSpot library]; 0.044 norm.
SASSTPTAIASPKATYVQDS [GABAAR α3 residues 423-442, µSpot library]; 0.022 norm.

In the following, a different sequence is considered.
Q: Recorded gephE Binding Intensity [norm.] for LEMKKKTPAAPTKKNTTFNI [GABAAR α3 residues 378-397, µSpot library] , please?
A: 0.059 norm.

---

test system: native geph; experiment: µSPOT peptide microarray binding assay with native geph from mouse brain lysate; conditions: µSPOT peptide microarray, GlyRβ full positional scan, native geph from mouse brain lysate; intensity normalised to wild-type sequence DLRSNDFSIVGSLPR (=1)
Cut-off 0.8 norm. on Native geph Binding Intensity [norm.], inclusive. At or above means Met; below means Not met.

Solved entries (count: 2):
DTRSNDFSIVGSLPR [GlyRβ_Full_Positional_Scan_036]; Met
DLRSNDFSICGSLPR [GlyRβ_Full_Positional_Scan_197, GlyR β 414-428 variant V423C]; Not met

Q: In plain terms: is recorded Native geph Binding Intensity [norm.] at least 0.8 norm. for DVRSNDFSIVGSLPR [GlyRβ_Full_Positional_Scan_026] ?
A: Met

Q: In plain terms: is recorded Native geph Binding Intensity [norm.] at least 0.8 norm. for DSRSNDFSIVGSLPR [GlyRβ_Full_Positional_Scan_035] ?
A: Met

Q: In plain terms: is recorded Native geph Binding Intensity [norm.] at least 0.8 norm. for DLRSNDCSIVGSLPR [GlyRβ_Full_Positional_Scan_137, GlyR β 414-428 variant F420C] ?
A: Not met

Q: In plain terms: is recorded Native geph Binding Intensity [norm.] at least 0.8 norm. for DLMSNDFSIVGSLPR [GlyRβ_Full_Positional_Scan_058] ?
A: Met

Q: In plain terms: is recorded Native geph Binding Intensity [norm.] at least 0.8 norm. for DLRSNQFSIVGSLPR [GlyRβ_Full_Positional_Scan_120] ?
A: Not met

Q: In plain terms: is recorded Native geph Binding Intensity [norm.] at least 0.8 norm. for DLRSNDQSIVGSLPR [GlyRβ_Full_Positional_Scan_140, GlyR β 414-428 variant F420Q] ?
A: Not met

---

system: native geph; experiment: µSPOT peptide microarray binding assay with native geph from mouse brain lysate; conditions: overlapping GABAAR α3 peptide library on µSPOT array; 6% mouse brain lysate; normalized to most prominent spot; n = 2 array-internal duplicate
Outcome Measure: Native geph Binding Intensity [norm.]

GTTYPINLAKDTEFSTISKS [GABAAR α3 residues 399-418, µSpot library]; 0.098 norm.

In the following, a different sequence is considered.
Q: Recorded Native geph Binding Intensity [norm.] for NIVGTTYPINLAKDTEFSTI [GABAAR α3 residues 396-415, µSpot library] , please?
A: 0.114 norm.

---

system: native geph; assay: µSPOT peptide microarray binding assay with native geph from mouse brain lysate; conditions: µSPOT peptide microarray, GlyRβ full positional scan, native geph from mouse brain lysate; intensity normalised to wild-type sequence DLRSNDFSIVGSLPR (=1)
Outcome Measure: Native geph Binding Intensity [norm.] (norm.)
// units = norm.; emit number, no label

DLRRNDFSIVGSLPR [GlyRβ_Full_Positional_Scan_072]; 1.25
DLRSNDFSILGSLPR [GlyRβ_Full_Positional_Scan_184, GlyR β 414-428 variant V423L]; 0.23
DLRSNDFSISGSLPR [GlyRβ_Full_Positional_Scan_195, GlyR β 414-428 variant V423S]; 0.3

Q: Recorded Native geph Binding Intensity [norm.] for DLGSNDFSIVGSLPR [GlyRβ_Full_Positional_Scan_042] , please?
A: 1.26

Q: Recorded Native geph Binding Intensity [norm.] for PLRSNDFSIVGSLPR [GlyRβ_Full_Positional_Scan_005] , please?
A: 0.72

Q: Recorded Native geph Binding Intensity [norm.] for DRRSNDFSIVGSLPR [GlyRβ_Full_Positional_Scan_032] , please?
A: 0.66

Q: Recorded Native geph Binding Intensity [norm.] for DLESNDFSIVGSLPR [GlyRβ_Full_Positional_Scan_051] , please?
A: 1.3

---

test system: native geph; test: µSPOT peptide microarray binding assay with native geph from mouse brain lysate; settings: µSPOT peptide microarray, GlyRβ full positional scan, native geph from mouse brain lysate; intensity normalised to wild-type sequence DLRSNDFSIVGSLPR (=1)
Native geph Binding Intensity [norm.] strictly under 0.7 norm. means Y; at 0.7 norm. or over means N.

Solved entries (count: 2):
DLRCNDFSIVGSLPR [GlyRβ_Full_Positional_Scan_077]; N
DLRSNDFSIVISLPR [GlyRβ_Full_Positional_Scan_203, GlyR β 414-428 variant G424I]; Y

Q: is_below(Native geph Binding Intensity [norm.], 0.7 norm.) for CLRSNDFSIVGSLPR [GlyRβ_Full_Positional_Scan_017] ?
A: N

Q: is_below(Native geph Binding Intensity [norm.], 0.7 norm.) for DLRQNDFSIVGSLPR [GlyRβ_Full_Positional_Scan_080] ?
A: N

Q: is_below(Native geph Binding Intensity [norm.], 0.7 norm.) for DLRSNDFCIVGSLPR [GlyRβ_Full_Positional_Scan_157, GlyR β 414-428 variant S421C] ?
A: Y

Q: is_below(Native geph Binding Intensity [norm.], 0.7 norm.) for DLRSEDFSIVGSLPR [GlyRβ_Full_Positional_Scan_091] ?
A: N

Q: is_below(Native geph Binding Intensity [norm.], 0.7 norm.) for DLRSNDFNIVGSLPR [GlyRβ_Full_Positional_Scan_159, GlyR β 414-428 variant S421N] ?
A: Y

Q: is_below(Native geph Binding Intensity [norm.], 0.7 norm.) for DLRSNCFSIVGSLPR [GlyRβ_Full_Positional_Scan_117] ?
A: Y

Q: is_below(Native geph Binding Intensity [norm.], 0.7 norm.) for DLRSNDFSINGSLPR [GlyRβ_Full_Positional_Scan_199, GlyR β 414-428 variant V423N] ?
A: Y

Q: is_below(Native geph Binding Intensity [norm.], 0.7 norm.) for DLKSNDFSIVGSLPR [GlyRβ_Full_Positional_Scan_054] ?
A: N

Q: is_below(Native geph Binding Intensity [norm.], 0.7 norm.) for DLRSKDFSIVGSLPR [GlyRβ_Full_Positional_Scan_094] ?
A: Y

Q: is_below(Native geph Binding Intensity [norm.], 0.7 norm.) for TLRSNDFSIVGSLPR [GlyRβ_Full_Positional_Scan_016] ?
A: N
